Tested on: Fibroblast
Assay: Multiplex assay against human fibroblast
Assay type: toxicity, cell-based
Details: 12 h, 1 µM, compound concentration 1 uM, replicate 1
The molecules listed here are annotated with their Population Pyknosed Nuclei (%).
MEASURE_NAME: Population Pyknosed Nuclei (%)

MOLECULE: C=CC(=O)Nc1cccc(Oc2nc(Nc3ccc(N4CCN(C)CC4)cc3OC)ncc2Cl)c1
DATA_VALUE: 6
//
MOLECULE: CNC(=O)Nc1ccc2c(c1)[C@@]1(CC2)OC(=O)N(CC(=O)N(Cc2ccc(F)cc2)[C@@H](C)C(F)(F)F)C1=O
DATA_VALUE: 18
//
MOLECULE: Cc1cccc(CN2CCN(C(c3ccccc3)c3ccc(Cl)cc3)CC2)c1.Cl.Cl (stereo not drawn)
DATA_VALUE: 29
//
MOLECULE: CCc1nn(CCCN2CCN(c3cccc(Cl)c3)CC2)c(=O)n1CCOc1ccccc1.Cl [NEFAZODONE HYDROCHLORIDE]
DATA_VALUE: 35
//
MOLECULE: O=c1cc(N2CCOCC2)oc2c(-c3cccc4c3sc3ccccc34)cccc12
DATA_VALUE: 32
//
MOLECULE: CC(C)Oc1ccccc1C(=O)Nc1ccccc1C(=O)Nc1cccc(S(=O)(=O)C(F)(F)F)c1
DATA_VALUE: 26
//
MOLECULE: CC(C)c1noc(N2CCC(COc3ccc(-c4ccc(S(C)(=O)=O)cc4)nc3)CC2)n1
DATA_VALUE: 25
//
MOLECULE: COc1cc2ncn(-c3cc(OCc4ccccc4C(F)(F)F)c(C(N)=O)s3)c2cc1OC [GW843682X]
DATA_VALUE: 29
